Target: human GPRC5D (human, UniProt Q9NZD1 1-345)
Sequence (Q9NZD1 whole entry): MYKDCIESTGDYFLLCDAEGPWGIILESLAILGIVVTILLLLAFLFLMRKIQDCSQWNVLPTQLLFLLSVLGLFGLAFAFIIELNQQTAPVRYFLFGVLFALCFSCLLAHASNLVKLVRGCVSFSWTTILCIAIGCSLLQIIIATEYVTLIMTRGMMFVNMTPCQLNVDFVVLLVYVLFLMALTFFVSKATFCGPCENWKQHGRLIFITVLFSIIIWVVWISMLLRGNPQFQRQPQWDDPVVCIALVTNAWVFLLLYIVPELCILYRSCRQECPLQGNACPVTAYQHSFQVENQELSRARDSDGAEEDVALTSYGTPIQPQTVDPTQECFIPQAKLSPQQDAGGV
Assay: cell-based or functional assay
# CAR-J2 EC50 [ng/mL] (PGLALA-CAR-J activation, L363 target cells) annotations
MEASUREMENT_NAME: CAR-J2 EC50 [ng/mL] (PGLALA-CAR-J activation, L363 target cells)

BINDER	OBSERVED
P1AE5726 (antibody, V domains shown, Humanized 5E11 IgG; PGLALA Fc implied by the CAR-J assay; also called 5E11_VH1d + 5E11_VL1a) VH: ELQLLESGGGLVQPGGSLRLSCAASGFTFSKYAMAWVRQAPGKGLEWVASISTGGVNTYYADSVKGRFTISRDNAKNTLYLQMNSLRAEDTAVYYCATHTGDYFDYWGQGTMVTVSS VL: DIVMTQSPDSLAVSLGERATINCRASQSVSISGINLMNWYQQKPGQQPKLLIYHASILASGVPDRFSGSGSGTDFTLTISSLQAEDVAVYYCQQTRESPLTFGQGTRLEIK	37.8 ng/mL
P1AE5707 (antibody, V domains shown, Humanized 5E11 IgG; PGLALA Fc implied by the CAR-J assay; also called 5E11_VH1a + 5E11_VL1a) VH: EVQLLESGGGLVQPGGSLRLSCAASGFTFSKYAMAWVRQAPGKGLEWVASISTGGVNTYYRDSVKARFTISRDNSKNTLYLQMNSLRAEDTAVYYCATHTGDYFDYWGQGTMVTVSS VL: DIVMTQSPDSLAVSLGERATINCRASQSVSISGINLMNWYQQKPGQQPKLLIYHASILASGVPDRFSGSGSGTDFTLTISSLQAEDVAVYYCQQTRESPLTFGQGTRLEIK	42.4 ng/mL
P1AE5709 (antibody, V domains shown, Humanized 5E11 IgG; PGLALA Fc implied by the CAR-J assay; also called 5E11_VH1a + 5E11_VL2a) VH: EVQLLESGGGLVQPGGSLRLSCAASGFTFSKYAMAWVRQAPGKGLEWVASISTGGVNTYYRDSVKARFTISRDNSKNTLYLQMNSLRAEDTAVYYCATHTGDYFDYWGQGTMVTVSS VL: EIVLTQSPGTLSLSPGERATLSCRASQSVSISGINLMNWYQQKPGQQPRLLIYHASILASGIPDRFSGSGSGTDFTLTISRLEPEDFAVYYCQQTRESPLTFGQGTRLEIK	59.4 ng/mL
